Recorded measurements of Relative Potency, one per entry
Test system: smooth muscle strips isolated from rabbit small intestine
Assay: Induction of in vitro rabbit duodenal smooth muscle contraction
Settings: relative to erythromycin A = 1.0
Reported property: Relative Potency

C#CC[N+](C)(C)[C@H]1C[C@@H](C)O[C@@H](O[C@@H]2[C@@H](C)[C@H](O[C@H]3C[C@@](C)(OC)C[C@H](C)O3)[C@@H](C)C(=O)O[C@H](CC)[C@@](C)(O)[C@H](O)[C@@H](C)C3=C(C)C[C@@]2(C)O3)[C@@H]1O: 62
C#CC[N+](C)(C)[C@H]1C[C@@H](C)O[C@@H](O[C@@H]2[C@@H](C)[C@H](O[C@H]3C[C@@](C)(OC)C[C@H](C)O3)[C@@H](C)C(=O)O[C@H](CC)[C@@](C)(O)[C@H](O)[C@@H](C)C3O[C@]2(C)C[C@@H]3C)[C@@H]1O: 60
CC[C@H]1OC(=O)[C@H](C)[C@@H](O[C@H]2C[C@@](C)(OC)C[C@H](C)O2)[C@H](C)[C@@H](O[C@@H]2O[C@H](C)C[C@H](N(C)C)[C@H]2O)[C@@]2(C)CC(C)=C(O2)[C@H](C)[C@@H](O)[C@]1(C)O: 363
CC[C@H]1OC(=O)[C@H](C)[C@@H](O[C@H]2C[C@@](C)(OC)C[C@H](C)O2)[C@H](C)[C@@H](O[C@@H]2O[C@H](C)C[C@H](N(C)CC)[C@H]2O)[C@@]2(C)C[C@@H](C)C(O2)[C@H](C)[C@@H](O)[C@]1(C)O: 60
CC[C@H]1OC(=O)[C@H](C)[C@@H](O[C@H]2C[C@@](C)(OC)C[C@H](C)O2)[C@H](C)[C@@H](O[C@@H]2O[C@H](C)C[C@H](NC)[C@H]2O)[C@@]2(C)C[C@H](C)C(O2)[C@H](C)[C@@H](O)[C@]1(C)O: 79

Values were extracted from patent US5654411A.
